biological target: T1, hK1 (human tissue kallikrein 1), recombinant (human, UniProt P06870 25-262); assay: SPR
T1 construct: Expressed in P. pastoris from KLK1 cDNA and purified; enzymatically active; also called KLK1; Recombinant (Pichia) Kallikrein
Would you mind telling me the reported koff of each entry?
Form entry: value (s⁻¹) — number only.

Fill blank: measured koff of the binder M0095-A11 (Fab, V domains shown) VH: EVQLLESGGGLVQPGGSLRLSCAASGFTFSPYMMGWVRQAPGKGLEWVSSIRSSGGATAYADSVKGRFTISRDNSKNTLYLQMNSLRAEDTATYYCARVGVWYGMDVWGQGTTVTVSS VL: DIQMTQSPATLSLSPGERATLSCRASQSVSSYLAWYQQKPGQAPRLLIYDASNRATGIPARFSGSGSGTDFTLTISSLEPEDFAVYYCQQRSNWPPYTFGQGTKLEIKR is ____.
0.00379

Fill blank: measured koff of the binder M0093-C02 (Fab, V domains shown) VH: EVQLLESGGGLVQPGGSLRLSCAASGFTFSWYAMHWVRQAPGKGLEWVSWISPSGGQTKYADSVKGRFTISRDNSKNTLYLQMNSLRAEDTAVYYCARAKVLRYFDWLLGGDAFDIWGQGTMVTVSS VL: DIQMTQSPGTLSLSPGDRATLSCRASQSVGSDYLAWYQQKPGQAPRLLIFAASTRATGIPDRFSGSGSATDFTLTISSLEPEDFAVYFCQQYASPPRTFGQGTKVEIKR is ____.
0.00103

Fill blank: measured koff of the binder M0122-H04 (Fab, V domains shown) VH: EVQLLESGGGLVQPGGSLRLSCAASGFTFSRYAMAWVRQAPGKGLEWVSSIGSSGGVTKYADSVKGRFTISRDNSKNTLYLQMNSLRAEDTAVYYCAAPRGRYYYDSSGYYYGGVFDYWGQGTLVTVSS VL: AQYELTQPRSVSGSPGQSVTISCTGTSSDVGGFNYVSWYQQHPGKAPKLMIYDVSKRPSGVPDRFSGSKSGTTASLTISGLQADDEADYYCCSYTGNYTYVFGTGTKVTVLG is ____.
0.000802

Fill blank: measured koff of the binder M0108-C10 (Fab, V domains shown) VH: EVQLLESGGGLVQPGGSLRLSCAASGFTFSRYVMAWVRQAPGKGLEWVSVIRPSGGKTLYADSVKGRFTISRDNSKNTLYLQMNSLRAEDTAVYYCARVAGRVGVPATKKNWFDPWGQGTLVTVSS VL: AQSVLTQPASVSGSPGQSITISCTGTSSDVGGYNYVSWYQQHPGQPPKLIIYEVSNRASGVSNRFSGSKFGNTASLTISGLQSEDEADYHCSSYTSSTTLLFGGGTRLTVLG is ____.
0.00431

Fill blank: measured koff of the binder M0111-B02 (Fab, V domains shown) VH: EVQLLESGGGLVQPGGSLRLSCAASGFTFSKYWMAWVRQAPGKGLEWVSVIYPSGGQTKYADSVKGRFTISRDNSKNTLYLQMNSLRAEDTAVYYCTLMRYGDRFDYWGQGTLVTVSS VL: AQYELTQDPAVSVALGQTVRITCQGDSLRSYYASWYQQKPGQAPVLVIYSKSNRPSGIPDRFSGSSSGSTASLTITGAQAEDEADYYCNSRDSSGNHLVFGGGTKLTVL is ____.
1170
